- Test system: Aspergillus fumigatus NRRL6113
- Protocol Details: Antifungal MIC80/MFC assay, fungal pathogen panel
*1 amine or outer side, *2 acyl side, *3 side chain or, on linkers, in order; H or OH if unused. Where a SMILES comes first, the peptide text is derived from it. [ ]: non-standard residue; d: D form. X2 = CC[C@H](C)C[C@H](C)C[C@H](C)C[C@H](N[*:1])C(=O)[*:2]; X1 = CC[C@@H](C)[C@@H](O[*:1])C(=O)[*:2]; NMeVal(β-OH) = CN[C@H](C(=O)O)C(C)(C)O; aIle = CC[C@@H](C)[C@H](N)C(=O)O; NMeV = CN[C@H](C(=O)O)C(C)C; Sar = CNCC(=O)O
Reported Metric: MIC80

Input: So what's the measured MIC80 for this one? `C[C@@H]1[C@H](O)[C@@H](C)/C=C/C=C/C=C/C=C/C=C/C=C/C=C/[C@H](O[C@@H]2O[C@H](C)[C@@H](O)[C@H](N)[C@@H]2O)C[C@@H]2O[C@](O)(C[C@@H](O)C[C@@H](O)[C@H](O)CC[C@@H](O)C[C@@H](O)CC(=O)O[C@H]1C)C[C@H](O)[C@H]2C(=O)O`
Output: 2.5 µM

Input: Value lookup for MIC80; key = `CC[C@H](C)C[C@H](C)CCCCCCCCC(=O)N[C@H]1C[C@@H](O)[C@@H](NCCN)NC(=O)[C@@H]2[C@@H](O)CCN2C(=O)[C@H]([C@H](O)CCN)NC(=O)[C@H]([C@H](O)[C@@H](O)c2ccc(O)cc2)NC(=O)[C@@H]2C[C@@H](O)CN2C(=O)[C@H]([C@@H](C)O)NC1=O`
Output: > 10 µM

Input: Sample CC[C@H](C)C[C@H](C)C[C@H](C)C[C@@H]1NC(=O)[C@H](C(C)C)N(C)C(=O)[C@@H]([C@H](C)CC)OC(=O)[C@H](C(C)(C)O)N(C)C(=O)[C@H](CC(C)C)NC(=O)[C@H](C(C)C)N(C)C(=O)[C@H]([C@H](C)CC)NC(=O)[C@@H]2CCCN2C(=O)CN(C)C1=O [Compound 1, persephacin] (cyclo(L[NMeVal(β-OH)][X1][NMeV][X2][Sar]P[aIle][NMeV])) — what was its MIC80?
Output: 2.5 µM

Input: Find the recorded MIC80 belonging to CCC(C)n1ncn(-c2ccc(N3CCN(c4ccc(OCC5COC(Cn6cncn6)(c6ccc(Cl)cc6Cl)O5)cc4)CC3)cc2)c1=O (stereo not shown) and report it.
Output: 1.25 µM

Origin of the recorded values: patent US11643438B2
